B1: YPEL3 (parent)
chain: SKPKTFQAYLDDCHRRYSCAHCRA

- Variants of: B1
- MEASUREMENT_PROTOCOL: protein stability index of a GFP-peptide fusion (GPS, HEK-293T) (PSI 1-6); higher = more stable;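 note: lentivirally expressed fusions sorted by FACS into six bins by GFP to DsRed ratio, PSI derived from sequencing read proportions per bin multiplied by bin number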
- COND: c terminus: a fixed tail appended
Exercise: for every item that follows, state its recorded protein stability index.
Give bare numbers.

Known protein stability index results, listed for orientation:
[[record]]
mutation_label = "F6H"
measured_quantity = "protein stability index"
endpoint_value = 2.71

[[record]]
mutation_label = "D12M"
measured_quantity = "protein stability index"
endpoint_value = 2.69

[[record]]
mutation_label = "D11M"
measured_quantity = "protein stability index"
endpoint_value = 2.47


Would you be so kind as to report protein stability index for each listed record?
1. T5N
2. C13S
3. H14N
4. R15D
5. C19T

1. 2.53
2. 2.25
3. 2.19
4. 2.67
5. 2.44
